- Assayed Target: UniProtKB P23526
- Sequence (P23526 whole entry): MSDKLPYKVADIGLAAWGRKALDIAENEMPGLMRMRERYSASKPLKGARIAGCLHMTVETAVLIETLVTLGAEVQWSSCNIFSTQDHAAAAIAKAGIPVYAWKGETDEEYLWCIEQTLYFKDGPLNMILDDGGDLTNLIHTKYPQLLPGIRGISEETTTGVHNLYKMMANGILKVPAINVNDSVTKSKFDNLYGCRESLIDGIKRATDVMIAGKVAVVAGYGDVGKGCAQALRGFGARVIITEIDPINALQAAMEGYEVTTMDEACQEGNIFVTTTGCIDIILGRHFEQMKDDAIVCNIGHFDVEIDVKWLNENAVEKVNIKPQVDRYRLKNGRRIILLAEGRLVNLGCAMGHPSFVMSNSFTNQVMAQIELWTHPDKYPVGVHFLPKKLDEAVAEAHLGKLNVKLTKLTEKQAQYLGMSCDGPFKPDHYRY
Endpoint Name: pIC50
# pIC50 = -log10(concentration in molar units)

The recorded pIC50 for entry Nc1nc(N)c2ncn([C@@H]3C[C@H](CO)[C@@H](O)[C@H]3O)c2n1 equals 4.04

----------
- System: adenosine deaminase
- Procedure Text: Metabolic stability in presence of calf intestinal adenosine deaminase assessed as compound remaining after 15 mins
- Type: ADME
- Condition Context: cattle, read-out: Activity
Endpoint Name: remaining at 0.25 h (%)
Answer format: numeric, % implied, no suffix.

Short answer for Nc1nc(F)nc2c1ncn2[C@@H]1C[C@H](CO)[C@@H](O)[C@H]1O : remaining at 0.25 h was 99.5

Notebook: Nc1nc(N)c2ncn([C@@H]3C[C@H](CO)[C@@H](O)[C@H]3O)c2n1 , remaining at 0.25 h read as 95.2

Record summary for Nc1ncnc2c1ncn2[C@@H]1C[C@H](CO)[C@@H](O)[C@H]1O : reported remaining at 0.25 h = 22.4

Hey, just so you know, these numbers are from ChEMBL document CHEMBL1142404.
